I'd be grateful if you could share measured hERG current change (%, negative = inhibition) at 10uM for these entries.
# measurement target: human ether-à-go-go-related gene (hERG) potassium channel (human);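 note: peak tail current of the secondary pulse compared with the same well before compound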
# Sequence (Q12809 whole entry, looked up): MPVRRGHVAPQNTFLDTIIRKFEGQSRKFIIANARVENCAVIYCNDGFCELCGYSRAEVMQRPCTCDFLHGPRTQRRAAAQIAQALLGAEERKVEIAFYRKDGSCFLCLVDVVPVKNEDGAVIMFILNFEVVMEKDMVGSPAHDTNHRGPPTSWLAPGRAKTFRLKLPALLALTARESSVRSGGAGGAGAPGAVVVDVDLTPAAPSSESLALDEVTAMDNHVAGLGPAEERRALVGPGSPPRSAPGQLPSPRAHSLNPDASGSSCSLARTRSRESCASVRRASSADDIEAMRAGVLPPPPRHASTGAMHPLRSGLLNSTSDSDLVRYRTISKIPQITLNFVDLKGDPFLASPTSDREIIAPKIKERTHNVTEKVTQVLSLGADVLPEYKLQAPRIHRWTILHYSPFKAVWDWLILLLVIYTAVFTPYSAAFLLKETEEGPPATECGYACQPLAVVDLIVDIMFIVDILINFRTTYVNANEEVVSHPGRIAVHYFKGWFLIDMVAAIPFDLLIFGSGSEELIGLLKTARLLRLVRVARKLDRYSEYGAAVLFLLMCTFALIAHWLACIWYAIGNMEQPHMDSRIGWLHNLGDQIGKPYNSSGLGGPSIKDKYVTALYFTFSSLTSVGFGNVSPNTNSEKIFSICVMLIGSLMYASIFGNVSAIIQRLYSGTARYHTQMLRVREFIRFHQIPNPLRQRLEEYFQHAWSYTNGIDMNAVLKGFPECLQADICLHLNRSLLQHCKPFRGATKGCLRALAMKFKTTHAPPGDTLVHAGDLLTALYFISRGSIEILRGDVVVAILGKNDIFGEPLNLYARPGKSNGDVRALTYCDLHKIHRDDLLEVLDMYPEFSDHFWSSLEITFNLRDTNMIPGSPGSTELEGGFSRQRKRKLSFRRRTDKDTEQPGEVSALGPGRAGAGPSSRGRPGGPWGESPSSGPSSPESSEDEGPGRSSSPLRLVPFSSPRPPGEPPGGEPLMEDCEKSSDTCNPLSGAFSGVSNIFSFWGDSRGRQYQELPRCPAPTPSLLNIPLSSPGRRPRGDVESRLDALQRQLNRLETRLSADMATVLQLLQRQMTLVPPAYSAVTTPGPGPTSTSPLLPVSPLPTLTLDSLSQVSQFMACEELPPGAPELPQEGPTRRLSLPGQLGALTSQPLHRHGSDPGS
# assay details: primary screen, population patch clamp on CHO cells stably expressing hERG; higher = less effect of the substance
# Method: Briefly, Chinese hamster ovary (CHO) cells stably expressing the hERG channel were dislodged from tissue culture flasks and dispensed into PPC plates. […] During the recording, background leak currents were estimated by a 100 ms step to -80 mV from an initial holding potential of -70 mV and subtracted from the subsequent current measurement. The campaign was conducted in two phases using slight differences in recording protocol. […]
Screen size: about 310,000 compounds; about 14,000 (4.5%) showed an effect of 50% or more. The effect is printed as a negative number. This is one part of a sample in which strong results are shown more often than they occur.

These recorded examples may help you get a feel for the data.
{"molecule": "O=C(Nc1cc(=O)[nH]c2nc(-c3ccccc3)nn12)c1ccccc1Cl", "result": "15.3%"}
{"molecule": "C=CCn1c(O)c(C(C)=NCCc2c[nH]c3ccccc23)c(=O)[nH]c1=O", "result": "-31.9%"}
{"molecule": "CN(Cc1ccccc1)C(=S)Nc1cccnc1", "result": "9.05%"}

Please report the recorded hERG current change (%, negative = inhibition) at 10uM for CC(C)NC(=O)C1CCCN(c2nnc(-n3cccc3)s2)C1 (stereo not shown) . -16.4%

Attribution: paper PMC4336329
